Molecular target: Adenosine receptor A3 (Homo sapiens, UniProt P0DMS8)
Sequence (P0DMS8 whole entry): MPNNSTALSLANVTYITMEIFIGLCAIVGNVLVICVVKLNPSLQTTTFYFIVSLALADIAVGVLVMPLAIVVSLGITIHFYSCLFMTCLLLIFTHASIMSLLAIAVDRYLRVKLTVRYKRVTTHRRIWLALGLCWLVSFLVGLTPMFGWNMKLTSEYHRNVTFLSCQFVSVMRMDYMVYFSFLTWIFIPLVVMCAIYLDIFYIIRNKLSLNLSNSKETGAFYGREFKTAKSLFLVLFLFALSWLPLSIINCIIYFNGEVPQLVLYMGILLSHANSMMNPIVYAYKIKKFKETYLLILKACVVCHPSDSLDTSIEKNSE
quantityMeasured: Ki (nM)

Consider the following illustrative entries.
CCn1cc2c(nc(N)n3nc(-c4ccco4)nc23)n1
407
CCn1cc2c(nc(NC(=O)Nc3cccc(Cl)c3)n3nc(-c4ccco4)nc23)n1
0.912
CCCCn1cc2c(nc(NC(=O)Nc3ccc4c(c3)OCO4)n3nc(-c4ccco4)nc23)n1
0.501
CCCn1cc2c(nc(NC(=O)Nc3cccc(Cl)c3)n3nc(-c4ccco4)nc23)n1
1.58
CCn1cc2c(nc(NC(=O)Nc3ccc4c(c3)OCO4)n3nc(-c4ccco4)nc23)n1
0.269
Cn1cc2c(nc(NC(=O)Nc3ccc4c(c3)OCO4)n3nc(-c4ccco4)nc23)n1
0.24

(I) CCCn1cc2c(nc(N)n3nc(-c4ccco4)nc23)n1
(II) CCCCCCCCn1cc2c(nc(NC(=O)Nc3ccc(C)cc3)n3nc(-c4ccco4)nc23)n1
Select one. Lower Ki: I or II Give the label of your selection.
II
(II: 4.07 nM, I: 331 nM)
